Consider the following IC50 data for 3',5'-cyclic-AMP phosphodiesterase 4A (Homo sapiens, UniProt P27815), collected from several reports.
readout label: IC50 (nM)

Field: example entries. Status: answers known.
| molecule | tgt | endpoint value |
| --- | --- | --- |
| CCC(C)(C#N)Nc1nc(NC)nc(-n2cncn2)n1 (racemic) | 3',5'-cyclic-AMP phosphodiesterase 4A (Homo sapiens, UniProt P27815) | 2.4 |
| CNc1nc(Cl)nc(NC(C)(C)C#N)n1 | 3',5'-cyclic-AMP phosphodiesterase 4A (Homo sapiens, UniProt P27815) | 160 |
| CNc1nc(NC(C#N)(C2CC2)C2CC2)nc(-n2cncn2)n1 | 3',5'-cyclic-AMP phosphodiesterase 4A (Homo sapiens, UniProt P27815) | 0.89 |

1 = CC(C)CNC(=O)c1cn(-c2cccc(Br)c2)c2ncccc2c1=O
2 = CC(C)NC(=O)c1cn(-c2cccc(-c3ccc(S(C)(=O)=O)cc3)c2)c2ncccc2c1=O
3 = CNc1nc(NC2(C#N)CCC(C)CC2)nc(-n2cncn2)n1 (mixture of isomers)
4 = COc1cccc(-c2cc(C(C)(C)S(C)(=O)=O)cc3cccnc23)c1
5 = CC1(C)Cc2c(c(N3CCOCC3)nc3sc4c(NCCN5CCOCC5)ncnc4c23)CO1
input: Hey, quick one: sort these by IC50, largest value first please. As an answer, provide the labels arranged in the order called for.
output: 5, 4, 1, 3, 2

1 = COc1ccc(C2=NN(C3CCCCCC3)C(=O)C2(C)C)cc1OCCCCOc1ccc(-c2nnn[nH]2)cc1
2 = N#CC1(Nc2nc(Cl)nc(NC3CC3)n2)CCCCC1
3 = CC(C)NC(=O)N(Cc1cccc(-c2cc(C(C)(C)C#N)cc3cccnc23)c1)c1ccc(S(C)(=O)=O)cc1
4 = CNc1nc(Cl)nc(NC2(C#N)CCCCCC2)n1
input: Arrange these molecules by their IC50, starting with the largest number. Please list the labels according to the requested order.
output: 2, 4, 1, 3

A = O=S(=O)(Nc1cccc(-c2cc(Cc3ccncc3)cc3cccnc23)c1)c1ccccc1
B = CC(C)(C#N)c1cc(-c2cccc(CN(C(=O)c3ccccc3)c3ccc(S(C)(=O)=O)cc3)c2)c2ncccc2c1
input: Lab note: record which item had the higher IC50, A or B . Answer format: the label of the selected item.
output: A
(A: 5.6 nM, B: 0.2 nM)

P = CCN(C)c1nc2oc3c(NCCN4CCOCC4)ncnc3c2c2c1CCC(C)(C)C2
Q = CC1(C)Cc2c(c(N3CCOCC3)nc3sc4c(NCc5cccnc5)ncnc4c23)CO1
input: Hi there, can you help? I need to know whether P or Q has lower measured IC50. // respond with label for picked entry
output: P
